The reader will find reported MIC values listed item by item below.
system: Serratia marcescens SM; assay: In vitro MIC, Broth Dilution Method; type: cell-based; details: Serratia marcescens, read-out: In Vitro MIC
Counter-ions that a name gives are not always drawn.
Output spec: scalar in µg/mL, unitless text.

Recorded results for 3 molecules are shown here.
CCn1cc(C(=O)[O-])c(=O)c2cc(F)c(N3CCN(C=N[C@@H]4C(=O)N(S(=O)(=O)[O-])[C@@H]4COC(N)=O)CC3)cc21.[Na+].[Na+] [Compound F]    0.063
CCn1cc(C(=O)O)c(=O)c2cc(F)c(N3CCN(C=N[C@@H]4C(=O)N5C(C(=O)O)=C(CSc6nc(=O)c(=O)[nH]n6C)CS[C@H]45)CC3)cc21 [Compound J, disodium salt]    0.5
CCn1cc(C(=O)O)c(=O)c2cc(F)c(N3CCCN(C=N[C@@H]4C(=O)N5[C@@H]4SC(C)(C)[C@@H]5C(=O)O)CC3)nc21 [Compound K, disodium salt]    4

Shift focus to the following entry.
Value lookup for MIC; key = CCn1cc(C(=O)[O-])c(=O)c2cc(F)c(N3CCN(C=N[C@H]4CN(S(=O)(=O)[O-])C4=O)CC3)cc21.[Na+].[Na+] [Compound E] 0.063

Origin of measurements: patent US5159077A
